Give Growth percent U251 for every item shown.
test system: U251; type: cell-based; conditions: CNS cancer; 10^−5 molar; 48 hours; SRB
Numbers only, in %.

> print(dat)
                                   compound    measurement.label  value.observed
1      CNc1nc2ccccc2c2c(=O)c3cc(Cl)ccc3sc12  Growth percent U251           85.19
2    O=c1c2cc(Cl)ccc2sc2c(NCCO)nc3ccccc3c12  Growth percent U251           84.10
3  CCC(CC)Nc1nc2ccccc2c2c(=O)c3cc(Cl)ccc3sc12  Growth percent U251           97.05
4  O=c1c2cc(Cl)ccc2sc2c(N3CCN(Cc4ccccc4)CC3)nc3ccccc3c12  Growth percent U251           96.69

Hi there! I need Growth percent U251 for each item below, if you can.
1. CCNc1nc2ccccc2c2c(=O)c3cc(Cl)ccc3sc12
2. CC(C)CC(C)Nc1nc2ccccc2c2c(=O)c3cc(Cl)ccc3sc12 (stereo not drawn)

[76.58, 105.12]

---

test system: 60 cancer cell lines; assay: NCI 60-cell screen, SRB, whole panel (mean, delta, range); type: cell-based; details: 60 cell; mean over panel; five dose
Measurement Label: GI50 (µM)
Give bare numbers, in µM.

Reference set, count: 2
> print(dat)
                              line.notation  measurement.label  value.observed
1  O=c1c2cc(Cl)ccc2sc2c(NCCCNCCO)nc3ccccc3c12               GI50            1.66
2    NCCNc1nc2ccccc2c2c(=O)c3cc(Cl)ccc3sc12               GI50            1.66

Hi there! I need GI50 for each item below, if you can.
1. CN(C)CCNc1nc2ccccc2c2c(=O)c3cc(Cl)ccc3sc12
2. O=c1c2cc(Cl)ccc2sc2c(NCc3ccccc3)nc3ccccc3c12
3. CCNc1nc2ccccc2c2c(=O)c3cc(Cl)ccc3sc12

[1.66, 11.2, 28.8]

---

system: UACC-257; assay type: cell-based; conditions: UACC-257; five dose
Measurement Label: TGI (µM)
Give bare numbers, in µM.

Reference set, count: 2
> print(dat)
                              line.notation  units.symbol  value.observed
1  O=c1c2cc(Cl)ccc2sc2c(NCCCNCCO)nc3ccccc3c12            µM            3.44
2  CN(C)CCNc1nc2ccccc2c2c(=O)c3cc(Cl)ccc3sc12            µM            3.21

I have this compound here, "NCCNc1nc2ccccc2c2c(=O)c3cc(Cl)ccc3sc12" , and I need its recorded TGI.
3.56

---

Give Growth percent 786-0 for every item shown.
tested on: 786-0; format: cell-based; details: Renal cancer; 10^−5 molar; 48 hours; SRB
Give bare numbers, in %.

Reference set, count: 4
> print(dat)
                                   compound     measurement.label  value.observed
1  NCCNc1nc2ccccc2c2c(=O)c3cc(Cl)ccc3sc12 [Compound N14]  Growth percent 786-0          −57.40
2  CC(C)CC(C)Nc1nc2ccccc2c2c(=O)c3cc(Cl)ccc3sc12 (stereo not shown) [Compound N13]  Growth percent 786-0           99.74
3  O=c1c2cc(Cl)ccc2sc2c(N3CCN(Cc4ccccc4)CC3)nc3ccccc3c12 [Compound 11]  Growth percent 786-0          105.57
4  CCC(CC)Nc1nc2ccccc2c2c(=O)c3cc(Cl)ccc3sc12 [Compound N6]  Growth percent 786-0          108.84

Hi there! I need Growth percent 786-0 for each item below, if you can.
1. O=c1c2ccc(Cl)cc2sc2c(Cl)nc3ccccc3c12 [Compound 3]
2. O=c1c2cc(Cl)ccc2sc2c(NCCO)nc3ccccc3c12 [Compound N9]
3. CNc1nc2ccccc2c2c(=O)c3cc(Cl)ccc3sc12 [Compound N1]
4. CCNc1nc2ccccc2c2c(=O)c3cc(Cl)ccc3sc12 [Compound N2]
5. CN(C)CCNc1nc2ccccc2c2c(=O)c3cc(Cl)ccc3sc12 [Compound N7]
6. CCC(CO)Nc1nc2ccccc2c2c(=O)c3cc(Cl)ccc3sc12 (stereo not shown) [Compound N12]

[105.25, 104.43, 95.51, 23.87, 43.11, 82.86]

---

tested on: SK-MEL-5; assay type: cell-based; settings: SK-MEL-5; 10^−5 molar
Give Growth percent for every item shown.

> print(dat)
                                   compound  measurement.label  value.observed
1  COc1ccc(CCNc2nc3ccccc3c3c(=O)c4cc(Cl)ccc4sc23)cc1 [Compound N31]     Growth percent          85.38%
2  O=c1c2cc(Cl)ccc2sc2c(NCCCNCCO)nc3ccccc3c12 [Compound N19]     Growth percent          62.02%
3  O=c1c2cc(Cl)ccc2sc2c(NCc3ccccc3)nc3ccccc3c12 [Compound N25]     Growth percent          92.81%
4  O=c1c2cc(Cl)ccc2sc2c(NCCc3ccccc3)nc3ccccc3c12 [Compound N30]     Growth percent          89.49%

Hi there! I need Growth percent for each item below, if you can.
1. O=c1c2cc(Cl)ccc2sc2c(NCCN3CCOCC3)nc3ccccc3c12 [Compound N16]
2. CN(C)CCCNc1nc2ccccc2c2c(=O)c3cc(Cl)ccc3sc12 [Compound N17]
3. O=c1c2cc(Cl)ccc2sc2c(NC3CCCCC3)nc3ccccc3c12 [Compound N21]
4. O=c1c2cc(Cl)ccc2sc2c(NCc3ccc4c(c3)OCO4)nc3ccccc3c12 [Compound N27]

1: 91.61%; 2: 91.73%; 3: 97.00%; 4: 79.86%

---

Give Growth percent for every item shown.
system: KM12; assay: cells; type: cell-based; conditions: KM12; 10^−5 molar
Numbers only, in %.

Reference set, count: 7
> print(dat)
                              line.notation  measurement.label  value.observed
1  O=c1c2cc(Cl)ccc2sc2c(NCc3ccc4c(c3)OCO4)nc3ccccc3c12     Growth percent           87.96
2  O=c1c2cc(Cl)ccc2sc2c(NCCN3CCOCC3)nc3ccccc3c12     Growth percent           68.16
3  O=c1c2cc(Cl)ccc2sc2c(NC3CCCCC3)nc3ccccc3c12     Growth percent          112.90
4  O=c1c2cc(Cl)ccc2sc2c(NCCc3ccccc3)nc3ccccc3c12     Growth percent           90.99
5  COc1ccc(CCNc2nc3ccccc3c3c(=O)c4cc(Cl)ccc4sc23)cc1     Growth percent          109.46
6  O=c1c2cc(Cl)ccc2sc2c(NCCCNCCO)nc3ccccc3c12     Growth percent          −83.29
7  O=c1c2cc(Cl)ccc2sc2c(NCc3ccccc3)nc3ccccc3c12     Growth percent           80.34

Now for the molecule whose Growth percent we want.
I have this molecule here, "CN(C)CCCNc1nc2ccccc2c2c(=O)c3cc(Cl)ccc3sc12" , and I need its recorded Growth percent.
97.75

---

test system: KM12; test: cells; type: cell-based; details: Colon cancer; 10^−5 molar; 48 hours; SRB
Measurement Label: Growth percent KM12 (%)
Answers are plain numbers, in %.

Reference set, count: 9
> print(dat)
                                   molecule  value.observed
1    O=c1c2cc(Cl)ccc2sc2c(NCCO)nc3ccccc3c12           91.93
2    NCCNc1nc2ccccc2c2c(=O)c3cc(Cl)ccc3sc12          −85.99
3      O=c1c2ccc(Cl)cc2sc2c(Cl)nc3ccccc3c12          111.27
4  CC(C)CC(C)Nc1nc2ccccc2c2c(=O)c3cc(Cl)ccc3sc12 (stereo not shown)          105.66
5  CCC(CC)Nc1nc2ccccc2c2c(=O)c3cc(Cl)ccc3sc12           94.04
6  O=c1c2cc(Cl)ccc2sc2c(N3CCN(Cc4ccccc4)CC3)nc3ccccc3c12          107.75
7  CCC(CO)Nc1nc2ccccc2c2c(=O)c3cc(Cl)ccc3sc12 (stereo not shown)           82.37
8     CCNc1nc2ccccc2c2c(=O)c3cc(Cl)ccc3sc12           85.79
9      CNc1nc2ccccc2c2c(=O)c3cc(Cl)ccc3sc12           68.75

Now for the molecule whose Growth percent KM12 we want.
I have this molecule here, "CN(C)CCNc1nc2ccccc2c2c(=O)c3cc(Cl)ccc3sc12" , and I need its recorded Growth percent KM12.
−77.07

Source: patent US8927717B1
